# Tested on: Rattus norvegicus
# experiment-summary: In vivo distribution of the drug in uterus/plasma was determined at 2 hr following injection of five microcurics of the radiolabeled [125 I] compound in rats
# Format: ADME, organism-based
quantity: uterus/plasma ratio
A bare number is all that is needed in reply.

| chem-smiles | uterus/plasma ratio |
| --- | --- |
| CO[C@H]1C[C@@]2(C)[C@@H](CC[C@@]2(O)/C=C/[125I])[C@@H]2CCc3cc(O)ccc3[C@H]21 | 68.3 |

Next, consider the following molecule.
Suppose we examine the molecule `C[C@]12CC[C@@H]3c4ccc(O)cc4CC[C@H]3[C@@H]1CC[C@@]2(O)/C=C/[125I]` ; what uterus/plasma ratio value has been reported?
5

====

# Test system: Rattus norvegicus
# experiment-summary: In vivo distribution of the drug in uterus/plasma was determined at 3h following injection of five microcurics of the radiolabeled [125 I] compound in rats
# Assay type: ADME, organism-based
# assay-conditions: other tissue
quantity: uterus/plasma ratio
A bare number is all that is needed in reply.

Suppose we examine the compound `C[C@]12CC[C@@H]3c4ccc(O)cc4CC[C@H]3[C@@H]1CC[C@@]2(O)/C=C/[125I]` ; what uterus/plasma ratio value has been reported?
9.7
